Give measured Tmax for each item. Keep answers brief.
# protocol.details: Tmax in mouse at 10 mg/kg, po
# Format: ADME, organism-based
# test.conditions: in vivo
Please state the value followed by its unit.

## Input Tell us which Tmax value is on record for `CCc1nc2ccc(Cl)cn2c1C(=O)NCc1ccc(N2CCC(Oc3ccc(C(F)(F)F)cc3)CC2)cc1`
## Output 2 h

## Input Dear colleague, please send me the reported Tmax for `CCc1nc2cc(Cl)ccn2c1C(=O)NCc1ccc(OCc2ccc(OC(F)(F)F)cc2)cc1` when you can.
## Output 0.5 h

## Input Tell me its Tmax given `CCc1nc2ccc(Cl)cn2c1C(=O)NCc1ccc(N2CCC(Oc3ccc(Cl)cc3)CC2)cc1` as the entry.
## Output 2 h

## Input Please report Tmax for the following compound: `CCc1nc2ccc(F)cn2c1C(=O)NCc1ccc(OCc2ccc(OC(F)(F)F)cc2)cc1`
## Output 1 h
